# target_of_assay: human OPRM1 (μ, MOR) (Homo sapiens, UniProt P35372)
# Construct: host or cells: CHO-K1
# Sequence (P35372 whole entry): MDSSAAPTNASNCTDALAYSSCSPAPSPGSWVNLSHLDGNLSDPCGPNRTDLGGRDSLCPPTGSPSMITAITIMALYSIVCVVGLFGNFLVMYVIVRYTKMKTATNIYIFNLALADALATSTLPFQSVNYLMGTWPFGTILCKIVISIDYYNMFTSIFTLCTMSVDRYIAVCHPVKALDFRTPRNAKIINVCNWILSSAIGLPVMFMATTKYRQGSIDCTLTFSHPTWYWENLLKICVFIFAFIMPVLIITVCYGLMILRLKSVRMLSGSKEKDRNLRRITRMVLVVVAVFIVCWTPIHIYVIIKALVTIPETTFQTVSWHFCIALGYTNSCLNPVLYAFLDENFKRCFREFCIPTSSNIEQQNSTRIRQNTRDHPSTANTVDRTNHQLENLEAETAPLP
# assay_procedure: cell-based
recorded_metric: cAMP Emax
Number plus unit, in that order.

Ask: For CN(C)[C@H](CCNC(=O)N[C@@H]1CCc2ccccc2C1)c1ccsc1 [Compound 71] , write its cAMP Emax.
Result: 71.2%

Ask: Annotate the compound CNC(CNC(=O)N1Cc2cccc(F)c2C1)c1ccsc1 (centres unmarked) with its measured cAMP Emax.
Result: 91.6%

Ask: Entry CN(C)[C@H](CCNC(=O)N[C@@H]1CCc2ccccc2C1)c1ccsc1 [Compound 72] needs its cAMP Emax filled in; supply it.
Result: 111.9%
